# Measured target: FAAH (Rattus norvegicus)
# Construct: Preparation of Rat Brain Membranes Preparations (FAAH Enzyme Solution); from tissue; host or cells: rat cerebrum (brain membrane preparation)
# Sequence (P97612 whole entry): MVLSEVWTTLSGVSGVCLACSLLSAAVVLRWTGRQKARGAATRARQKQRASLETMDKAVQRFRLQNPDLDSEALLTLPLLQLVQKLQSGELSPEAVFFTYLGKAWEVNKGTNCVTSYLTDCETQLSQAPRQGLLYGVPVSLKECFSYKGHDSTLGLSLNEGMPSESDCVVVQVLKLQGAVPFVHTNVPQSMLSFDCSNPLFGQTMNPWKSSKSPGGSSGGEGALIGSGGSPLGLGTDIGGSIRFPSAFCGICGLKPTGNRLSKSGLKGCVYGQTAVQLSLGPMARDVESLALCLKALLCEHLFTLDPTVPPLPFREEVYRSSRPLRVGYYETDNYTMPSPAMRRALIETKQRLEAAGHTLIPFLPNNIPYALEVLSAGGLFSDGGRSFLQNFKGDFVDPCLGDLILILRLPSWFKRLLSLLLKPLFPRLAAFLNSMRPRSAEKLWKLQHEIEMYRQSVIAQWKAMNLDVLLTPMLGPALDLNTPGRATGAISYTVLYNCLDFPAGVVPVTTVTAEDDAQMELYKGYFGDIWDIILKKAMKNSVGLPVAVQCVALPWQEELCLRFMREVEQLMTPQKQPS
# Test details: Determination of FAAH inhibitory activity in rat (rat brain membrane preparations, [3H]-anandamide hydrolysis)
# Assay type: biochemical
# Condition details: rat brain membrane preparations; test substance 0.1 nM to 1 μM; read-out: FAAH Inhibition IC50
Could you please report measured pIC50 for the items listed next?
Give bare numbers, as −log10 of the molar value.

These solved cases illustrate the format of a correct answer.
>>> endpoint_value("Cn1c(=O)n(C(=O)N2CCN(c3ccc(C#N)cc3)CC2)c2cnc(-c3ccccc3)nc21 [Example 132]")
8.22
>>> endpoint_value("Cn1c(=O)n(C(=O)N2CCCC2)c2cnc(-c3cc(F)ccc3F)nc21 [Example 189]")
8.15
>>> endpoint_value("COCc1ncc2c(n1)n(C)c(=O)n2C(=O)N1CC[C@H](Oc2cccc(Cl)c2)C1 [Example 490]")
8.70
>>> endpoint_value("Cn1c(=O)n(C(=O)N2CCN(c3ncccn3)CC2)c2cnc(-c3ccccc3)nc21 [Example 51]")
7.60
>>> endpoint_value("COc1cccc(-c2ncc3c(n2)n(C)c(=O)n3C(=O)N2CCC(/C=C/c3ccc(Cl)cc3)CC2)c1 [Example 112]")
8.40
>>> endpoint_value("Cn1c(=O)n(C(=O)N2CCC2)c2nc(-c3ccc(F)cc3)ncc21 [compound 354]")
7.28

Please report pIC50 for every entry that follows.
1. Cc1ccc(/C=C/c2ncc3c(n2)n(C)c(=O)n3C(=O)N2CCCC2)cc1 [Example 9]
2. CN(C)C(=O)n1c(=O)n(C)c2cnc(CCc3ccc(F)c(C4CC4)c3)nc21 [compound 527]
3. CCCCOc1ccc(-c2ncc3c(n2)n(C(=O)N2CCC2)c(=O)n3C)cc1 [compound 349]
4. Cn1c(=O)n(C(=O)N2CCCC2)c2nc(/C=C/c3ccccc3)ncc21 [Example 241]
5. Cn1c(=O)n(C(=O)N2CCCC2)c2cnc(Cc3ccccc3F)nc21 [Example 254]

Response:
7.33
7.55
8.00
7.37
7.48
